Values were extracted from PubChem BioAssay (EPA / NIEHS).

Test Name: Tanguay_ZF_120hpf_PFIN_legacy: (Legacy) Oregon State University Tanguay Lab 120 Hour Post-fertilization zebrafish Assay for Pectoral Fin Malformation (AID 2283648);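 note: each larva judged yes or no for fin defect by brightfield with dead larvae skipped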
Records with an inconclusive call do not appear. The source made the active and inactive calls. Rule for the calls: active = hit-call score of the fitted dose curve at least 0.9, where 1 is the maximum; inconclusive = response in the unintended direction; inactive = score below 0.9.
Observation Type: AC50

# example entries with known answers
> print(dat)
                                        mol  recorded.measurement
1  Nc1ccn([C@@H]2O[C@H](CO)[C@@H](O)[C@@H]2O)c(=O)n1              inactive
2  CC(C)C(=O)Nc1ccc([N+](=O)[O-])c(C(F)(F)F)c1              inactive
3                                 CCOC(N)=O              inactive
4  O=C(O)c1cccc(C[C@@H]2COc3ccc(OCc4nc5cc(F)ccc5s4)cc3[C@@H]2O)c1              inactive
5  c1ccc(C(O[C@@H]2CCCN(CCc3ccc4c(c3)OCO4)C2)c2ccccc2)cc1      33.4 µM (active)

Now consider the entry below.
What value of AC50 has been reported for the following compound? `NC(=O)NN=Cc1ccc([N+](=O)[O-])o1`
inactive
